PROTOCOL_NOTES: chemical genetic growth profiling, strain panel (AID 1159580);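 further: tested at 20 µM; growth read once vehicle control cultures reached saturation at 30 °C; 1 = growth at the plate median or of vehicle wells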
MEASUREMENT_CONTEXT: S. cerevisiae deletion strains, growth OD, locus YFR003C, strain YPI1
Among all 5,500 compounds or so, about 2,000 (36%) were called active. Another 18% or so got no clear call; they are omitted. No stated cut-off is given here; in the data, active means normalized growth mostly below about 0.91 (no sharp cut-off); inconclusive means no clear call, values can overlap the other calls; inactive means mostly above about 0.92. The list shows a part of the results.
Possible outcomes: active, inactive

In [3]: df
Out[3]:
                                 smiles_repr  assigned_label
 0  O=[N+]([O-])c1cc(C(F)(F)F)ccc1-n1ccc(-c2cccs2)n1        inactive
 1  Cc1c(C(=O)N2CCCCC2)cc(-c2ccccc2)n1-c1ccccc1        inactive
 2  C/C(=N/NC(N)=S)c1ccc(Oc2c(Cl)cncc2Cl)cc1        inactive
 3       C=CC(=O)N1CCc2cc([N+](=O)[O-])ccc21          active
 4  N#C/C(=N/Nc1ccccc1Cl)S(=O)(=O)c1ccc(Cl)cc1        inactive
 5  Cc1c(Cl)cccc1NC(=S)N1CCCN(c2ccc(C(F)(F)F)cc2[N+](=O)[O-])CC1        inactive
 6  N#C/C(=C\c1ccccc1Sc1ccc(Cl)cc1)S(=O)(=O)c1ccccn1        inactive
 7  O=C(Nc1cc(Cl)cc(Cl)c1)Nc1cc(-c2ccco2)[nH]n1        inactive
 8  O=C(NCc1ccco1)c1ccc(Oc2cc(Cl)cc(Cl)c2)o1        inactive
 9   CC(C)(C)C1=NN(c2nc3ccc(Cl)cc3s2)C(=O)C1          active
10     S=C(Nc1cc(-c2cccs2)[nH]n1)Nc1ccccc1Cl        inactive
11     O=C(C=C(O)c1ccc(Br)cc1)C(=O)Nc1ccccc1          active
12  O=C(Nc1c(Br)c(C2CC2)nn1-c1ccccc1)C(Cl)(Cl)Cl        inactive
13  Cc1c(Cl)cccc1NC(=S)N1CCCN(c2nc3ccc(Cl)cc3s2)CC1        inactive
14                   C/C(=N/NC(N)=S)c1ccccn1        inactive
15  O=C(Oc1cc(Cl)c(Cl)cc1Cl)C1c2ccccc2Oc2ccccc21        inactive

----------
# normalized growth values compiled below
PROTOCOL_NOTES: chemical genetic growth profiling, strain panel (AID 1159580);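 further: tested at 20 µM; growth read once vehicle control cultures reached saturation at 30 °C; 1 = growth at the plate median or of vehicle wells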
MEASUREMENT_CONTEXT: S. cerevisiae deletion strains, growth OD, locus YAL026C, strain drs2, stronger effect = lower value
In all, about 5,500 compounds went through this assay and about 2,000 (36%) were called active. About 18% were inconclusive and are not listed. This is one part of the list.
READOUT: normalized growth

MOLECULE	READOUT	RESULT_NUMBER
O=C(/C=C/c1ccccc1)O[C@H]1C[C@@H](O)[C@]2(O)C=CO[C@@H](O[C@@H]3O[C@H](CO)[C@@H](O)[C@H](O)[C@H]3O)[C@H]12	normalized growth	1.03
CC1(C)C2CC[C@]3(C)C(C(=O)C=C4[C@@H]5C[C@@](C)(C(=O)O)CC[C@]5(C)CC[C@]43C)[C@@]2(C)CC[C@@H]1OC(=O)CCC(=O)O (some centres undefined)	normalized growth	0.981
NC/C=C/C(=O)O	normalized growth	0.997
CN1C2CC3C[C@H]1C(O3)C2O (some centres undefined)	normalized growth	1.02
C/C=C(/C(=C/C)c1ccc(O)cc1)c1ccc(O)cc1	normalized growth	0.9
CN1CCc2cc3c(cc2C1O)OCO3 (centres undefined)	normalized growth	0.986
COc1ccc(-c2cc(=O)c3c(O)cc(OC)c(OC)c3o2)c(OC)c1	normalized growth	1.02
C[C@@H](N)CO	normalized growth	0.992
CCSC(=N)N	normalized growth	1.01
Cc1cc(OC(=O)N2CCCCC2)c(C(C)C)cc1[N+](C)(C)C	normalized growth	1.03
CCC1(C)CC(=O)NC1=O (centres undefined)	normalized growth	0.986
C1CCc2nnnn2CC1	normalized growth	1.01
O=C(O)c1cc(=O)c2ccc(Cl)cc2[nH]1	normalized growth	1.03
Cc1cc(=O)c2c(O)c(C)c(O)cc2o1	normalized growth	1.04
CCC1(c2ccccc2)C(=O)NCNC1=O	normalized growth	0.991
COc1ccc(-c2coc3c(OC)c(OC)cc(O)c3c2=O)cc1	normalized growth	1
CC1(C)C2CC[C@]3(C)C(C(=O)C=C4[C@H]5C[C@@](C)(C(=O)O)CC[C@]5(C)CC[C@]43C)[C@@]2(C)CC[C@@H]1O (some centres undefined)	normalized growth	0.881
CCCCCC(C)N (centres undefined)	normalized growth	1.02
CC(C)CC1C(=O)N2CCC[C@H]2C2(O)O[C@](NC(=O)C3C=C4c5cccc6[nH]c(Br)c(c56)C[C@H]4N(C)C3)(C(C)C)C(=O)N12 (some centres undefined)	normalized growth	0.991
CCN(CC)C(=S)SSC(=S)N(CC)CC	normalized growth	0.0682
O=c1ccc2cc(O)c(O)cc2o1	normalized growth	0.992
COc1ccc(C(=O)c2ccccc2)c(O)c1	normalized growth	0.74
NC(N)=Nc1nc(CSCCC(N)=NS(N)(=O)=O)cs1	normalized growth	0.995
Cc1c(N(C)C)c(=O)n(-c2ccccc2)n1C	normalized growth	0.977
